Provenance of the data: patent US20230159453A1

- testTarget: SARS2 protease (Severe acute respiratory syndrome coronavirus 2, UniProt P0DTD1)
- protocolSummary: SARS-CoV-2 protease inhibition assay (SARS2 FRET protease assay)
- Assay type: biochemical
- protocolConditions: SARS-CoV-2 protease 25 nM, FRET, peptide substrate 1.3 μM, 30 minutes at 30° C., compounds 20 μM to 1.0 nM; read-out: IC50
quantityName: IC50 (nM)
# unit: nM | format: bare number

compound: CS(=O)(=O)N1CCC2(CC1)CC(C[C@@H](C=O)NC(=O)[C@H](CC1CCCCC1)NC(=O)OCc1cccc(Cl)c1)C(=O)N2 (stereo partly drawn)
reportedValue: 71

compound: CC(C)C[C@H](NC(=O)OC(c1ccccc1)C(C)(C)c1cccc(Cl)c1)C(=O)N[C@H](C=O)C[C@@H]1CCNC1=O (stereo partly drawn)
reportedValue: 1.2

compound: CC(=O)N1CCC2(CC1)CC(CC(NC(=O)[C@@H](CC1CCCCC1)NC(=O)c1cc3ccccc3[nH]1)C(=O)C(N)=O)C(=O)N2 (stereo partly drawn)
reportedValue: 185

compound: CC(C)C[C@H](NC(=O)OC1(Cc2cccc(Cl)c2)CC1)C(=O)N[C@@H](C[C@@H]1CCNC1=O)C(=O)C(N)=O
reportedValue: 1300

The observed IC50 for CC(C)(c1cccc(Cl)c1)C(OC(=O)N[C@@H](CC1CCCCC1)C(=O)N[C@H](C=O)C[C@@H]1CCNC1=O)c1ccc(F)cc1 (stereo partly drawn) when tested with SARS2 protease (Severe acute respiratory syndrome coronavirus 2, UniProt P0DTD1) stands at 43.6

Field IC50 (system: SARS2 protease (Severe acute respiratory syndrome coronavirus 2, UniProt P0DTD1)) for entry O=C(N[C@@H](CC1CCCCC1)C(=O)N[C@@H](C[C@@H]1CCNC1=O)C(=O)C(=O)NC1CC1)OC1CCCC1Cc1cccc(Cl)c1 (stereo partly drawn) = 3670

The value of IC50 recorded for CC(C)C[C@H](NC(=O)OC(c1ccc(Cl)cc1)C1(c2cccc(Cl)c2)CC1)C(=O)N[C@@H](C[C@@H]1CCNC1=O)C(=O)C(=O)NC1CC1 (stereo partly drawn) when tested on SARS2 protease (Severe acute respiratory syndrome coronavirus 2, UniProt P0DTD1) reads 4.4

Reported SARS2 protease (Severe acute respiratory syndrome coronavirus 2, UniProt P0DTD1) IC50 for item NC(=O)C(=O)[C@H](C[C@@H]1CCNC1=O)NC(=O)[C@H](Cc1ccccc1)NC(=O)OC(CCc1ccccc1)c1ccccc1 (stereo partly drawn) was 70

Simply: CC(C)(c1cccc(Cl)c1)C(OC(=O)N[C@@H](CC1CCCCC1)C(=O)N[C@@H](C[C@@H]1CCNC1=O)C(=O)C(N)=O)c1cccc(F)c1 (stereo partly drawn) , SARS2 protease (Severe acute respiratory syndrome coronavirus 2, UniProt P0DTD1), IC50 = 1060

Per the reported SARS2 protease (Severe acute respiratory syndrome coronavirus 2, UniProt P0DTD1) data, CC(C)C[C@H](NC(=O)OC(Cc1cccc(Cl)c1)c1ccccc1)C(=O)N[C@@H](C[C@@H]1CCNC1=O)C(O)S(=O)(=O)O (stereo partly drawn) has IC50 of 11.1

Entry CS(=O)(=O)N1CCC2(CC1)CC(CC(NC(=O)[C@H](CC1CCCCC1)NC(=O)OC1CCCC1Cc1cccc(Cl)c1)C(=O)C(=O)NC1CC1)C(=O)N2 (stereo partly drawn) ; assay system SARS2 protease (Severe acute respiratory syndrome coronavirus 2, UniProt P0DTD1); IC50 recorded at 4390
